experimental.protocol: PK of C458 in mice, plasma and brain by LC-MS/MS
Type: in vivo, mouse
condition.notes: mouse, brain, intravenous; 2.5 mg/kg intrafemoral vein injection; read-out: concentration in the brain, times higher than in plasma
measured.parameter: Kp

Param item = Cc1cccc(O[C@@H]2CCC[C@H](C(C)CNCc3ccncc3)C2)c1 (relative stereo) ; retrieve measured Kp.
7 to 8

====

experimental.protocol: PK of C458 in mice, plasma and brain by LC-MS/MS
Format: in vivo, mouse
condition.notes: mouse, brain, intravenous; 2.5 mg/kg intrafemoral vein injection, one-compartment model, first rate elimination; read-out: estimated half-life in brain
measured.parameter: half-life
I'd appreciate it if you included the unit after the number.

Param item = Cc1cccc(O[C@@H]2CCC[C@H](C(C)CNCc3ccncc3)C2)c1 (relative stereo) ; retrieve measured half-life.
42 min

====

experimental.protocol: PK of C458 in mice, plasma and brain by LC-MS/MS
Format: in vivo, mouse
condition.notes: mouse, plasma, intravenous, 2 mg/kg, 0.5 hr, single mouse; read-out: Plasma Concentration
Protocol: FIG. 10 is a graph plotting the elimination rate for C458 in brain and plasma of mice treated with 2.5 mg/kg of the compound via intrafemoral vein injection. Animals were sacrificed at 30 minutes, 1 hour, and 2 hours post injection. The feasibility of developing the C458 series was evaluated by determining the in vivo PK profile for C458. […] Frozen serum and brain tissue samples were analyzed using a bioanalytical LC-MS/MS method. […]
measured.parameter: concentration at 0.5 h (ng/mL)
Give a bare numeral; the unit ng/mL is implied.

Param item = Cc1cccc(O[C@@H]2CCC[C@H](C(C)CNCc3ccncc3)C2)c1 (relative stereo) ; retrieve measured concentration at 0.5 h.
43.7

====

experimental.protocol: PK of C458 in mice, plasma and brain by LC-MS/MS
Type: in vivo, mouse
condition.notes: mouse, plasma, intravenous, 2 mg/kg, 2 hr, single mouse; read-out: Plasma Concentration
measured.parameter: concentration at 2 h (ng/mL)
Give a bare numeral; the unit ng/mL is implied.

Param item = Cc1cccc(O[C@@H]2CCC[C@H](C(C)CNCc3ccncc3)C2)c1 (relative stereo) ; retrieve measured concentration at 2 h.
9.83

====

experimental.protocol: PK of C458 in mice, plasma and brain by LC-MS/MS
Assay type: in vivo, mouse
condition.notes: mouse, plasma, intravenous, 2 mg/kg, 1 hr, single mouse; read-out: Plasma Concentration
measured.parameter: concentration at 1 h (ng/mL)
Give a bare numeral; the unit ng/mL is implied.

Param item = Cc1cccc(O[C@@H]2CCC[C@H](C(C)CNCc3ccncc3)C2)c1 (relative stereo) ; retrieve measured concentration at 1 h.
13

====

experimental.protocol: PK of C458 in mice, plasma and brain by LC-MS/MS
Format: in vivo, mouse
condition.notes: mouse, brain, iv; wild type mice, intravenously at 2 mg/kg; read-out: concentration in brain tissue, times higher (w/v) than in plasma
measured.parameter: Kp

Param item = Cc1cccc(O[C@@H]2CCC[C@H](C(C)CNCc3ccncc3)C2)c1 (relative stereo) ; retrieve measured Kp.
7 to 10

====

experimental.protocol: PK of C458 in mice, plasma and brain by LC-MS/MS
Assay type: in vivo, mouse
condition.notes: mouse, plasma, intravenous; 2.5 mg/kg intrafemoral vein injection, one-compartment model, first rate elimination; read-out: estimated half-life in plasma
measured.parameter: half-life (min)
Give a bare numeral; the unit min is implied.

Param item = Cc1cccc(O[C@@H]2CCC[C@H](C(C)CNCc3ccncc3)C2)c1 (relative stereo) [Compound C458] ; retrieve measured half-life.
48
